test system: full length rTrkA and mNGF (Rattus norvegicus, UniProt P35739)
Construct: co-expressing full length rTrkA and mNGF; expressed in transfected cells; host or cells: Ba/F3 cells
Sequence (P35739 33-799): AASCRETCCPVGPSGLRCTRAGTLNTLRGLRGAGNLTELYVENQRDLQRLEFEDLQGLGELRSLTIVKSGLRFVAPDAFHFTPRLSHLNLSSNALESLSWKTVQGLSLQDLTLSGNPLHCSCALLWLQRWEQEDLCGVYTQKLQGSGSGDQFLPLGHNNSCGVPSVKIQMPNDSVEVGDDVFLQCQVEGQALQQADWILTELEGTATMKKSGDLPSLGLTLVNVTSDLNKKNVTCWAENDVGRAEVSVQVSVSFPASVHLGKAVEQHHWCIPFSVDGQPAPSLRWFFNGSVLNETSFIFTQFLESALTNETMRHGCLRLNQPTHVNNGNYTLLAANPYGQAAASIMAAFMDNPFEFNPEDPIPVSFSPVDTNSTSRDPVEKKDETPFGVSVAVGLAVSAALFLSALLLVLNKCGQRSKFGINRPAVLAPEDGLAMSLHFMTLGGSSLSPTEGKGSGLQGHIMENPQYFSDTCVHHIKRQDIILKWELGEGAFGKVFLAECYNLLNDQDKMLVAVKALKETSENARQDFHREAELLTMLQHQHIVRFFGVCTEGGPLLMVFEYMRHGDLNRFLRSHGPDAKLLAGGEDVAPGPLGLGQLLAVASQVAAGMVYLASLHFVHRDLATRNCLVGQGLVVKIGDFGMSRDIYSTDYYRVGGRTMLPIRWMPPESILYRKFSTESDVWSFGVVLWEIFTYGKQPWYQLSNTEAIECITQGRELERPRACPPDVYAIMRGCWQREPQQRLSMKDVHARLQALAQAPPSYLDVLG
Sequence (P01139 122-241 partner): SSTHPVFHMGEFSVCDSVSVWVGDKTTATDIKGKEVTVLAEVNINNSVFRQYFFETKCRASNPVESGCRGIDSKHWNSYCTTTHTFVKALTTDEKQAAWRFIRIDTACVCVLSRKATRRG
measurement protocol: Inhibition of proliferation of Ba/F3 cells co-expressing full length rTrkA and mNGF (BaF3/TrkA-NFG)
Assay type: cell-based
condition parameters: BaF3 TRKA-NGF cells, CTG readout
Please provide measured BaF3 TRKA-NGF CTG IC 50 for the entries that follow.
One number for each entry, in nM.

Recorded results for 6 compounds are shown here.
{"columns": ["compound", "unit annotation", "BaF3 TRKA-NGF CTG IC 50"],
 "data": [
  ["CCN(CC)S(=O)(=O)N1CCN(c2cccc(-c3cnc4ccc(N5CCC[C@@H]5c5cccc(F)c5)nn34)n2)CC1", "nM", 54],
  ["CN1CCC(Oc2cc(-c3cnc4ccc(N5CCCC5c5cc(F)ccc5F)nn34)ccc2C#N)C1 (stereo not shown)", "nM", 316],
  ["O=C(c1ccc(-c2cnc3ccc(N4CCCC4c4cccc(F)c4)nn23)cn1)N1CCC(O)CC1 (stereo not shown)", "nM", 370],
  ["Fc1cccc(C2CCCCN2c2ccc3ncc(-c4ccc(N5CCOCC5)nc4)n3n2)c1 (stereo not shown)", "nM", 108],
  ["Fc1cccc(C2COCCN2c2ccc3ncc(-c4cccc(NCCN5CCNCC5)n4)n3n2)c1 (stereo not shown)", "nM", 77],
  ["CN1CCC(N2CCN(c3cccc(-c4cnc5ccc(N6CCOCC6c6cccc(F)c6)nn45)n3)CC2)CC1 (stereo not shown)", "nM", 6.1]
]}

Below: the item to evaluate.
Query block: Any idea what its BaF3 TRKA-NGF CTG IC 50 is? The compound is OCC1CCCN(c2cccc(-c3cnc4ccc(N5CCCC5c5cccc(F)c5)nn34)n2)C1 (stereo not shown)
Result block: 13

---

test system: full length rTrkA and mNGF (Rattus norvegicus)
Construct: co-expressing full length rTrkA and mNGF; expressed in transfected cells; host or cells: Ba/F3 cells
measurement protocol: Inhibition of proliferation of Ba/F3 cells co-expressing full length rTrkA and mNGF (BaF3/TrkA-NFG)
Type: cell-based
condition parameters: BaF3 TRKA-NGF cells, CTG readout
Please provide measured BaF3 TRKA-NGF CTG IC 50 for the entries that follow.
Give bare numbers, in nM.

Recorded results for 6 compounds are shown here.
{"columns": ["compound", "BaF3 TRKA-NGF CTG IC 50 (nM)"],
 "data": [
  ["OCC(O)CNc1cccc(-c2cnc3ccc(N4CCCC4c4cccc(F)c4)nn23)n1 (stereo not shown) [Table 4-Compound 16]", 5.2],
  ["Fc1cccc([C@H]2CCCN2c2ccc3ncc(-c4cccc(N5CC[C@@H](NCC(F)(F)F)C5)n4)n3n2)c1 [Table 7-Compound 217]", 60],
  ["OC1CCN(c2ccc(-c3cccc(-c4cnc5ccc(N6CCCC6c6cccc(F)c6)nn45)n3)cn2)CC1 (stereo not shown) [Table 7-Compound 61]", 9.8],
  ["OCCN1CCN(c2cccc(-c3cnc4ccc(N5CCOCC5c5cccc(F)c5)nn34)n2)CC1 (stereo not shown) [Table 7-Compound 5]", 6.4],
  ["CN(C)CCN(C)c1cc(-c2cnc3ccc(N4CCCC4c4cc(F)ccc4F)nn23)ccc1C#N (stereo not shown) [Table 5-Compound 23]", 111],
  ["OCCNc1ncc(-c2cnc3ccc(N4CCCC4c4cccc(F)c4)nn23)cn1 (stereo not shown) [Table 7-Compound 171]", 238]
]}

Query block: Find BaF3 TRKA-NGF CTG IC 50 (full length rTrkA and mNGF (Rattus norvegicus)) for the entry N#Cc1ccc(-c2cnc3ccc(N4CCCC4c4cc(F)ccc4F)nn23)cc1N1CCC(N2CCOCC2)CC1 (stereo not shown) [Table 5-Compound 13]
Result block: 5.3
